TEST_TARGET: T1, ZFP SBS#1276 (synthetic)
T1 chain: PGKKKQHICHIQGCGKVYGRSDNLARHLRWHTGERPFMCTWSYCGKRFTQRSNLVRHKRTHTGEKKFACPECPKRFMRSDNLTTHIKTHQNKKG
METHOD_NOTES: EMSA
SETTINGS: tags: MBP fusion
RECORDED_ENDPOINT: pKd
# pKd is unitless: minus log10 of the molar concentration; print number only

[ask] If you can, please state the reported pKd value of TAGGAAGAG (dsDNA) DNA 1: TAGGAAGAG DNA 2: CTCTTCCTA .
[reply] 9.16
